- subjectOfTest: SARS-CoV-2 NSP3 macrodomain (Mac1), P43 crystal form (Severe acute respiratory syndrome coronavirus 2, UniProt P0DTD1)
- Type: binding
- conditionParameters: occupancy estimate from PanDDA 1-BDC
Parameter class (string): assigned from measured 2*(1-BDC) (%). Ranges: low-valued = under 30%, mid-valued = from 30% up to 40%, high-valued = 40% and over

The examples below pair each entry with its known result.
| molecule | groupLabel |
| --- | --- |
| CC1(C)C[C@@H](CO)N(c2ncnc3[nH]ccc23)C1.O=C(O)C(F)(F)F [AVI-3704] | high-valued |
| OCC(Nc1ncnc2[nH]ccc12)C1CC1 (centres unmarked) [AVI-3651] | mid-valued |
| OCC(Nc1ncnc2[nH]ccc12)C1CCOC1 (centres unmarked) [AVI-3679] | mid-valued |
| OCC1CC2(CCCCC2)CN1c1ncnc2[nH]ccc12 (centres unmarked) [AVI-3727] | high-valued |
| C#CCC(CO)Nc1ncnc2[nH]ccc12 (centres unmarked) [AVI-3644] | mid-valued |

Prompt: Hey, which category is NC(=O)C1(O)CCN(c2ncnc3[nH]ccc23)C1 (centres unmarked) [AVI-611] in, do you know?
Response: high-valued

Prompt: Lab log: OCC(CC1CCCC1)Nc1ncnc2[nH]ccc12 (centres unmarked) [AVI-3691] — assign 2*(1-BDC) (%) category
Response: mid-valued

Prompt: Category lookup for the molecule CN1CCN(c2ncnc3[nH]ccc23)C(CO)C1 (centres unmarked) [AVI-3721]
Response: low-valued

Prompt: Input CCC(O)[C@H]1CCCN1c1ncnc2[nH]ccc12 (some centres unmarked) [AVI-3666] ; output its category
Response: high-valued

Prompt: // return the class label for OCC(Nc1ncnc2[nH]ccc12)C1CCc2ccccc21 (centres unmarked) [AVI-3693]
Response: high-valued

Prompt: Band for the recorded 2*(1-BDC) (%) of CC(CNC(=O)c1ccc2c(c1)CCC(=O)N2)C(=O)O (centres unmarked) [AVI-328] ?
Response: low-valued

###

- subjectOfTest: SARS-CoV-2 NSP3 macrodomain (Mac1), P43 crystal form (Severe acute respiratory syndrome coronavirus 2)
- Format: binding
- conditionParameters: crystal soak concentration 10 mM, DMSO background map, event 1
assayEndpoint: PanDDA run, DMSO background map: 1-BDC
Numbers only.

Below, each entry is followed by its recorded PanDDA run, DMSO background map: 1-BDC result.
| molecule | assayEndpoint | resultValue |
| --- | --- | --- |
| CNc1ccc(NS(=O)(=O)c2cc3cccc(C)c3s2)cn1 | PanDDA run, DMSO background map: 1-BDC | 0.17 |
| CC1CC(C(=O)O)CN(C(=O)CSc2ccc(O)cc2)C1 (stereo not shown) | PanDDA run, DMSO background map: 1-BDC | 0.07 |
| Cc1c[nH]c2ncnc(NCC3(O)CCC(C)(C)CC3)c12 | PanDDA run, DMSO background map: 1-BDC | 0.11 |

Respectfully, I request PanDDA run, DMSO background map: 1-BDC for each entry included below.
1. O=C(Nc1ccsc1C(=O)O)c1ccc2c(c1)OCO2
2. Cc1cc2c(=O)n(CCN3C(=O)c4ccccc4S3(=O)=O)nnc2s1

Response:
1. 0.07
2. 0.18

For every record below, what is its PanDDA run, DMSO background map: 1-BDC?
1. COc1ccc(NC(=O)NC2CCCC2)cc1-n1nnnc1C
2. Cc1c[nH]c2ncnc(NCC3(O)CCC(C)CC3)c12 (stereo not shown)
3. Cc1c[nH]c2ncnc(NCC3(O)CCSCC3)c12
4. OCC(Cc1ccccc1)Nc1ncnc2[nH]ccc12 (stereo not shown)
5. CC1CCN(C(=O)c2ccc3c(c2)nc(CO)n3C)CC1C(=O)O (stereo not shown)

Response:
[0.09, 0.23, 0.14, 0.18, 0.25]

###

- subjectOfTest: SARS-CoV-2 NSP3 macrodomain (Mac1), P43 crystal form (Severe acute respiratory syndrome coronavirus 2, UniProt P0DTD1)
- Format: binding
- conditionParameters: crystal soak concentration 10 mM; DMSO background map
assayEndpoint: PanDDA run, DMSO background map: Hit

| compound | assayEndpoint | resultValue |
| --- | --- | --- |
| Cc1c[nH]c2ncnc(NCC3(O)CCC(C)CC3)c12 (stereo not drawn) [AVI-4331] | PanDDA run, DMSO background map: Hit | TRUE |
| CC(C)(O)C1N(c2ncnc3[nH]ccc23)CCC1(C)C (stereo not drawn) [AVI-4126] | PanDDA run, DMSO background map: Hit | TRUE |
| OCC(Cc1ccccc1)Nc1ncnc2[nH]ccc12 (stereo not drawn) [AVI-313] | PanDDA run, DMSO background map: Hit | TRUE |
| CC(C)(O)C1C2CCC2CN1c1ncnc2[nH]ccc12 (stereo not drawn) [AVI-4128] | PanDDA run, DMSO background map: Hit | TRUE |
| COc1ccc(NC(=O)NC2CCCC2)cc1-n1nnnc1C [AVI-311] | PanDDA run, DMSO background map: Hit | TRUE |

Return reported PanDDA run, DMSO background map: Hit values for all items listed beneath this line.
1. Cc1c[nH]c2ncnc(NCC3(O)CCSCC3)c12 [AVI-4195]
2. Cc1c[nH]c2ncnc(NCC3(O)CCC(O)CC3)c12 (stereo not drawn) [AVI-4329]
3. Cc1sc2ncnc(Sc3ccccc3C(=O)O)c2c1C [AVI-317]

Response:
1: TRUE; 2: TRUE; 3: TRUE

Would you mind giving PanDDA run, DMSO background map: Hit for every compound in the list below?
1. CC1CC(C(=O)O)CN(C(=O)CSc2ccc(O)cc2)C1 (stereo not drawn) [AVI-334]
2. CC1CCN(C(=O)c2ccc3c(c2)nc(CO)n3C)CC1C(=O)O (stereo not drawn) [AVI-348]
3. CC(C)(O)C1C2CCCCC2CN1c1ncnc2[nH]ccc12 (stereo not drawn) [AVI-4127]
4. Cc1c[nH]c2ncnc(NCC3(O)CCOCC3)c12 [AVI-4194]

Response:
["TRUE", "TRUE", "TRUE", "TRUE"]

###

- subjectOfTest: SARS-CoV-2 NSP3 macrodomain (Mac1), P43 crystal form (Severe acute respiratory syndrome coronavirus 2, UniProt P0DTD1)
- Type: binding
- conditionParameters: occupancy estimate from PanDDA 1-BDC
assayEndpoint: 2*(1-BDC) (%)
Answers are plain numbers, in %.

Worked cases, 2*(1-BDC) (%) given:
| compound | 2*(1-BDC) (%) |
| --- | --- |
| O=C(O)C(F)(F)F.OC[C@H]1CC2(CN1c1ncnc3[nH]ccc13)OCCO2 [AVI-3702] | 42 |
| O=C(O)C(F)(F)F.OCC1(Nc2ncnc3[nH]ccc23)CCCC1 [AVI-3692] | 44 |
| OCCC(CO)Nc1ncnc2[nH]ccc12 (stereo not shown) [AVI-3734] | 50 |

Give 2*(1-BDC) (%) for each listed item.
1. OC1CCCN(c2ncnc3[nH]ccc23)C1 (stereo not shown) [AVI-3646]
2. CC1CCN(c2ncnc3[nH]ccc23)C1CO (stereo not shown) [AVI-3655]
3. OCC(Cc1cncs1)Nc1ncnc2[nH]ccc12 (stereo not shown) [AVI-3703]
4. OCC1CC2(CCCC2)CN1c1ncnc2[nH]ccc12 (stereo not shown) [AVI-3708]
5. CCC(CO)Nc1ncnc2[nH]ccc12 (stereo not shown) [AVI-3643]
6. CC(C)(C)C1CCC(CO)N(c2ncnc3[nH]ccc23)C1 (stereo not shown) [AVI-3719]

Response:
44
42
30
64
32
16

// input: 2 compounds below; output: 2*(1-BDC) (%) for each
1. C[C@@H](O)[C@H](CO)Nc1ncnc2[nH]ccc12.O=C(O)C(F)(F)F [AVI-3730]
2. OCC(Cc1c[nH]c2ccccc12)Nc1ncnc2[nH]ccc12 (stereo not shown) [AVI-3650]

Response:
28
30

Below is a list of compounds. For each, state its recorded 2*(1-BDC) (%).
1. OCC1C2CCC(C2)N1c1ncnc2[nH]ccc12 (stereo not shown) [AVI-3713]
2. OCC(CN1CCCCC1)Nc1ncnc2[nH]ccc12 (stereo not shown) [AVI-3677]
3. Cc1cc2c(=O)n(CCN3C(=O)c4ccccc4S3(=O)=O)nnc2s1 [AVI-341]
4. Cc1ccccc1CC(CO)Nc1ncnc2[nH]ccc12 (stereo not shown) [AVI-3674]
5. OC[C@@H]1C[C@H](O)CN1c1ncnc2[nH]ccc12 [AVI-610]
6. CC(C)(O)[C@H]1CCCN1c1ncnc2[nH]ccc12 [AVI-607]
7. O=C(O)C(F)(F)F.OCC1(Nc2ncnc3[nH]ccc23)CC1 [AVI-3688]

Response:
58
42
36
38
42
88
40

Required: 2*(1-BDC) (%), one value per compound below.
1. OCC(CC1CCCO1)Nc1ncnc2[nH]ccc12 (stereo not shown) [AVI-3660]
2. OCC(Nc1ncnc2[nH]ccc12)c1ccccc1 (stereo not shown) [AVI-3715]

Response:
46
36
